- Study system: T1, APC5009-AA
- T1 chain: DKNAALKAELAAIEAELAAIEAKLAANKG
- Assay method text: two-hybrid library CCmax;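 further: natural log of median RNA to DNA barcode read ratio; higher means stronger binding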
- Measurement conditions: mean of both orientations
Please use Met whenever interaction score is not below -1, and Not met whenever it is.

Consider the following illustrative entries.
Binder | Assigned class
DENAALEAKAAALKAKAAALKAELAAEEG [APC4336-AA] | Met
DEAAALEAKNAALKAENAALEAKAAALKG [APC2543-AA] | Not met
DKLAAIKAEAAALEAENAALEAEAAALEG [APC1242-AA] | Not met
DEAAALEAELAANEAKLAAIKAKLAAIKG [APC2811-AA] | Met

# check: interaction score of DKAAALKAKAAALKAKNAALKAENAALEG [APC3354-AA] is greater than or equal to -1
Not met

Does the binder DELAAIEAEAAALEAEAAALEAEAAALEG [APC222-AA] have recorded interaction score that is -1 or more?
Not met

Could you verify whether the entry DEAAALEAKNAALKAKNAALKAELAAEEG [APC2556-AA] shows interaction score of no less than -1?
Not met

Say whether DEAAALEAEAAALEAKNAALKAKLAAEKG [APC2257-AA] shows interaction score of -1 or more.
Not met

Identify whether the reported interaction score of the following binder is -1 or greater: DEAAALEAKLAANKAELAANEAKLAAIKG [APC2981-AA]
Not met

hey, is interaction score for this one >= -1? DKAAALKAKAAALKAEAAALEAKAAALKG [APC3323-AA]
Not met

Does interaction score meet or surpass -1 for DKAAALKAEAAALEAELAAEEAKNAALKG [APC3265-AA] ?
Not met
